Origin of the recorded values: patent US20250161273A1

- Measurement description: phase 1 study in patients with mild to moderate Parkinson's disease (PK, safety)
- Type: in vivo, human
- Condition parameters: human, plasma, oral, 150 mg, PD patients; Regimen C 150 mg BID, fast; Day 1; read-out: Tmax (median)
Readout label: Tmax (h)
Return type: number; implicit unit h.

# lookup: Tmax of Brc1cccc(-c2cc(-c3ccc4c(c3)OCO4)n[nH]2)c1 [anle138b]
1

====

- Measurement description: phase 1 first-in-human trial, multiple ascending dose (MAD) PK
- Format: in vivo
- Condition parameters: human, plasma, oral, 300 mg, healthy volunteers, fasted; 300 mg QD (Cohort CM); Day 7; read-out: Tmax (range)
Readout label: Tmax

# lookup: Tmax of Brc1cccc(-c2cc(-c3ccc4c(c3)OCO4)n[nH]2)c1 [anle138b]
1 to 1.5 h

====

- Measurement description: phase 1 study in patients with mild to moderate Parkinson's disease (PK, safety)
- Format: in vivo, human
- Condition parameters: human, plasma, oral, 150 mg, PD patients; Regimen C 150 mg BID, fast; Day 7; read-out: T1/2 (geometric mean) (converted)
Readout label: half-life at 7 days
Hi, when you answer, please include the unit after the number. Thanks!

# lookup: half-life at 7 days of Brc1cccc(-c2cc(-c3ccc4c(c3)OCO4)n[nH]2)c1 [anle138b]
14.1 h

====

- Measurement description: phase 1 study in patients with mild to moderate Parkinson's disease (PK, safety)
- Assay type: in vivo, human
- Condition parameters: human, plasma, oral, 150 mg, PD patients; Regimen A 150 mg single dose on Day 9, fed state; read-out: Tmax (median)
Readout label: Tmax (h)
Return type: number; implicit unit h.

# lookup: Tmax of Brc1cccc(-c2cc(-c3ccc4c(c3)OCO4)n[nH]2)c1 [anle138b]
3

====

- Measurement description: phase 1 first-in-human trial, multiple ascending dose (MAD) PK
- Assay type: in vivo
- Condition parameters: human, plasma, oral, 100 mg, healthy volunteers, fasted; 100 mg QD; Day 7; read-out: AUC(0-tau) (geometric mean)
Readout label: AUC

# lookup: AUC of Brc1cccc(-c2cc(-c3ccc4c(c3)OCO4)n[nH]2)c1 [anle138b]
~141 ng·h/mL

====

- Measurement description: phase 1 first-in-human trial, single ascending dose (SAD) PK
- Assay type: in vivo
- Condition parameters: human, plasma, oral, healthy volunteers; single dose 50-300 mg; post-administration; read-out: median Tmax, all SAD cohorts
Readout label: Tmax

# lookup: Tmax of Brc1cccc(-c2cc(-c3ccc4c(c3)OCO4)n[nH]2)c1 [anle138b]
1 to 1.5 h

====

- Measurement description: phase 1 study in patients with mild to moderate Parkinson's disease (PK, safety)
- Type: in vivo, human
- Condition parameters: human, CSF/plasma; PD patients; multiple QD oral doses of 300 mg, fasted; 3 h post-dose on Day 5; read-out: CSF/plasma anle138b concentration ratio (geometric mean)
Readout label: Kp at 3 h
// no unit string in output, number only

# lookup: Kp at 3 h of Brc1cccc(-c2cc(-c3ccc4c(c3)OCO4)n[nH]2)c1 [anle138b]
0.0024

====

- Measurement description: phase 1 first-in-human trial, multiple ascending dose (MAD) PK
- Type: in vivo
- Condition parameters: human, plasma, oral, 100 mg, healthy volunteers, fasted; 100 mg QD; Day 1; read-out: AUC(0-tau) (geometric mean)
Readout label: AUC

# lookup: AUC of Brc1cccc(-c2cc(-c3ccc4c(c3)OCO4)n[nH]2)c1 [anle138b]
~261 ng·h/mL

====

- Measurement description: phase 1 first-in-human trial, food effect study (FES) PK
- Type: in vivo
- Condition parameters: human, plasma, po, 150 mg, healthy volunteers; single oral 150 mg; fasted; read-out: AUC(0-last) (geometric mean)
Readout label: AUC(0-t) (ng·h/mL)
Return type: number; implicit unit ng·h/mL.

# lookup: AUC(0-t) of Brc1cccc(-c2cc(-c3ccc4c(c3)OCO4)n[nH]2)c1 [anle138b]
888

====

- Measurement description: phase 1 first-in-human trial, single ascending dose (SAD) PK
- Assay type: in vivo
- Condition parameters: human, plasma, po, 50 mg, healthy volunteers, fasted; single oral 50 mg; plasma; read-out: AUC(0-24) (geometric mean)
Readout label: AUC(0-t)

# lookup: AUC(0-t) of Brc1cccc(-c2cc(-c3ccc4c(c3)OCO4)n[nH]2)c1 [anle138b]
~113 ng·h/mL

====

- Measurement description: phase 1 study in patients with mild to moderate Parkinson's disease (PK, safety)
- Assay type: in vivo, human
- Condition parameters: human, plasma, oral, 150 mg, PD patients; Regimen A 150 mg QD (row prints fed, title fasted state); Day 1; tau 24 h; read-out: AUC(0-tau) (geometric mean)
- Source text: Study Title: A Single Part Study to Assess the Safety, Tolerability, Pharmacokinetics and Pharmacodynamics of Multiple Ascending Oral Doses of anle138b, and to Characterize the Effect of Food on the Pharmacokinetics of anle138b in Patients with Mild to Moderate Parkinson's Disease. This was a two-center, double-blind, randomised, placebo-controlled study that enrolled twenty two (22) participants in cohorts (i.e. regimens) A-C. All completed the study per protocol. […]
Readout label: AUC

# lookup: AUC of Brc1cccc(-c2cc(-c3ccc4c(c3)OCO4)n[nH]2)c1 [anle138b]
~1040 ng·h/mL

====

- Measurement description: phase 1 first-in-human trial, single ascending dose (SAD) PK
- Format: in vivo
- Condition parameters: human, plasma, po, 50 mg, healthy volunteers, fasted; single oral 50 mg; plasma; read-out: Cmax (geometric mean)
Readout label: Cmax

# lookup: Cmax of Brc1cccc(-c2cc(-c3ccc4c(c3)OCO4)n[nH]2)c1 [anle138b]
~54.3 ng/mL

====

- Measurement description: phase 1 first-in-human trial, single ascending dose (SAD) PK
- Type: in vivo
- Condition parameters: human, plasma, po, 50 mg, healthy volunteers, fasted; single oral 50 mg (Cohort A); read-out: Tmax (range)
Readout label: Tmax

# lookup: Tmax of Brc1cccc(-c2cc(-c3ccc4c(c3)OCO4)n[nH]2)c1 [anle138b]
0.5 to 2 h

====

- Measurement description: phase 1 first-in-human trial, multiple ascending dose (MAD) PK
- Format: in vivo
- Condition parameters: human, plasma, oral, 200 mg, healthy volunteers, fasted; 200 mg QD (Cohort BM); Day 1; read-out: Tmax (median)
Readout label: Tmax (h)
Return type: number; implicit unit h.

# lookup: Tmax of Brc1cccc(-c2cc(-c3ccc4c(c3)OCO4)n[nH]2)c1 [anle138b]
1.5

====

- Measurement description: phase 1 first-in-human trial, single ascending dose (SAD) PK
- Format: in vivo
- Condition parameters: human, plasma, po, 300 mg, healthy volunteers, fasted; single oral 300 mg (Cohort D); read-out: Tmax (range)
Readout label: Tmax

# lookup: Tmax of Brc1cccc(-c2cc(-c3ccc4c(c3)OCO4)n[nH]2)c1 [anle138b]
1.5 to 2 h

====

- Measurement description: phase 1 study in patients with mild to moderate Parkinson's disease (PK, safety)
- Type: in vivo, human
- Condition parameters: human, plasma, oral, 300 mg, PD patients; Regimen B 300 mg single dose on Day 9, fed state; read-out: AUC(0-last) (geometric mean)
Readout label: AUC(0-t) (ng·h/mL)
Return type: number; implicit unit ng·h/mL.

# lookup: AUC(0-t) of Brc1cccc(-c2cc(-c3ccc4c(c3)OCO4)n[nH]2)c1 [anle138b]
831

====

- Measurement description: phase 1 study in patients with mild to moderate Parkinson's disease (PK, safety)
- Format: in vivo, human
- Condition parameters: human, plasma, oral, 300 mg, PD patients; Regimen B 300 mg QD (row prints fed, title fasted state); Day 7; read-out: Tmax (median)
Readout label: Tmax at 7 days

# lookup: Tmax at 7 days of Brc1cccc(-c2cc(-c3ccc4c(c3)OCO4)n[nH]2)c1 [anle138b]
1.5 h

====

- Measurement description: phase 1 first-in-human trial, multiple ascending dose (MAD) PK
- Format: in vivo
- Condition parameters: human, plasma, oral, 300 mg, healthy volunteers, fasted; 300 mg QD; Day 1; read-out: Cmax (geometric mean)
Readout label: Cmax

# lookup: Cmax of Brc1cccc(-c2cc(-c3ccc4c(c3)OCO4)n[nH]2)c1 [anle138b]
~910 ng/mL

====

- Measurement description: phase 1 first-in-human trial, food effect study (FES) PK
- Format: in vivo
- Condition parameters: human, plasma, po, 150 mg, healthy volunteers; single oral 150 mg; fed; read-out: T1/2 (geometric mean) (converted)
Readout label: half-life (min)
Return type: number; implicit unit min.

# lookup: half-life of Brc1cccc(-c2cc(-c3ccc4c(c3)OCO4)n[nH]2)c1 [anle138b]
912

====

- Measurement description: phase 1 first-in-human trial, single ascending dose (SAD) PK
- Type: in vivo
- Condition parameters: human, plasma, po, 100 mg, healthy volunteers, fasted; single oral 100 mg (Cohort B); read-out: Tmax (range)
- Description: Anle138b was studied in a single-centre, double-blind, randomised, placebo-controlled single ascending dose (SAD) and multiple ascending dose (MAD) study in healthy subjects. […] Data from all randomized individuals were evaluated. […] Study design: A single-centre, double-blind, randomised, placebo-controlled single ascending dose (SAD) and multiple ascending dose (MAD) study of anle138b in doses of up to 300 mg per day in healthy subjects. […] The study data was monitored. […]
Readout label: Tmax

# lookup: Tmax of Brc1cccc(-c2cc(-c3ccc4c(c3)OCO4)n[nH]2)c1 [anle138b]
0.5 to 2 h
